B1: Azoarcus group I ribozyme (parent)
chain: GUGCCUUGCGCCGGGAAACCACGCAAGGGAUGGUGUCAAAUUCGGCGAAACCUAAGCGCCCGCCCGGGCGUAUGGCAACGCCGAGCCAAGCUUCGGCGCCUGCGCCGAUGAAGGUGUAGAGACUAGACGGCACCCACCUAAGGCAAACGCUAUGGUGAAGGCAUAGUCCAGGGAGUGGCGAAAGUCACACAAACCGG

variants of: B1; test: reverse-splicing fitness (ratio to wild type); higher = more active; in vitro selection; Mg2+ level not given

alteration	reverse-splicing fitness
C82U A145G C150G C169G U176A	0.01
C82G A120C A145G C150G U176A	0.0102
C82G A111G A120C A145U C150U C169A	0.01
C82A A120C A145G C150G C169A	0.01

Just for reference, the RNAGym collection of RNA variant scans (doi:10.1093/molbev/msab373) is where these values come from.
